ASSAY_SYSTEM: PDE4B (Homo sapiens, UniProt Q07343)
Sequence (Q07343 whole entry, species assumed): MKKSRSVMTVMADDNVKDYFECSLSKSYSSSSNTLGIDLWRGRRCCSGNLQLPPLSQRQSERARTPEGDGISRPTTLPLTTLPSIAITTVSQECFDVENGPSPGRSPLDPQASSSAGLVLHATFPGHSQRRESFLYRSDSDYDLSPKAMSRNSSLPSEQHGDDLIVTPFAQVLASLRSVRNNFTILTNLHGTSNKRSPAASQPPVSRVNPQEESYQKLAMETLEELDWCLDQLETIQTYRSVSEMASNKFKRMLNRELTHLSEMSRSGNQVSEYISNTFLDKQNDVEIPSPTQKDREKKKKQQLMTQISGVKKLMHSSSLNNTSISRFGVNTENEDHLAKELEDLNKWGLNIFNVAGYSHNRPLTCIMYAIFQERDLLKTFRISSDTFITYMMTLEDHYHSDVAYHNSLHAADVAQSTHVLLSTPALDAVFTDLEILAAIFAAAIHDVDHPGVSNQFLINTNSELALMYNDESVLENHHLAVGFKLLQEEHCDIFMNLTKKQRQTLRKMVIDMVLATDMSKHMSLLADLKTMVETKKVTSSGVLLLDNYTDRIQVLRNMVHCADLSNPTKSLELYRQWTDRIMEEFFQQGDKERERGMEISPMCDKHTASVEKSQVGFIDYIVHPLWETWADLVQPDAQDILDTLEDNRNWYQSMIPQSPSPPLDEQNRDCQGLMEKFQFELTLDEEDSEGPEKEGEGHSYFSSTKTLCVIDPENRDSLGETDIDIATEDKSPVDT
ASSAY: Scintillation Proximity Assay (SPA) of PDE4B enzyme activity ([H3]-cAMP cleavage)
Assay type: biochemical
CONDITION_DETAILS: test substance 1 μM; one-hour incubation with [H3]-cAMP at 30° C.
REPORTED_ENDPOINT: inhibition at 1 µM (%)
Give the quantity in %, number only.

Give reported inhibition at 1 µM for CC(C)[C@H](CO)Nc1nc(N2CCC(c3cc(-c4cccs4)[nH]n3)CC2)nc2c1[S+]([O-])CC2 (stereo partly shown) (PDE4B (Homo sapiens, UniProt Q07343))
83

Give reported inhibition at 1 µM for CN1C[C@@H](Nc2nc(N3CCC(C(=O)c4ccc(F)cc4)(c4ccc(F)cc4)CC3)nc3c2[S+]([O-])CC3)CCC1=O (stereo partly shown) (PDE4B (Homo sapiens, UniProt Q07343))
96

Give reported inhibition at 1 µM for [O-][S+]1CCc2nc(N3CCC(Oc4ccc(C5=NCCO5)cc4)CC3)nc(NC3CCOCC3)c21 (stereo not shown) (PDE4B (Homo sapiens, UniProt Q07343))
93

Give reported inhibition at 1 µM for O=C(c1ccc(OC2CCN(c3nc4c(c(NC5CCOCC5)n3)[S+]([O-])CC4)CC2)cc1)N1CCOCC1 (stereo not shown) (PDE4B (Homo sapiens, UniProt Q07343))
94
